Recorded Ki by entry
target: rat α4β2 nAChR subtype (Rattus norvegicus, UniProt P09483+P12390); construct: The cerebral cortex was removed and placed in 20 volumes (weight:volume) of ice-cold preparative buffer; assay: Radioligand binding, [3H]nicotine, rat cortex membranes; settings: [3H]nicotine 5 nM
Sequence (P09483 31-630): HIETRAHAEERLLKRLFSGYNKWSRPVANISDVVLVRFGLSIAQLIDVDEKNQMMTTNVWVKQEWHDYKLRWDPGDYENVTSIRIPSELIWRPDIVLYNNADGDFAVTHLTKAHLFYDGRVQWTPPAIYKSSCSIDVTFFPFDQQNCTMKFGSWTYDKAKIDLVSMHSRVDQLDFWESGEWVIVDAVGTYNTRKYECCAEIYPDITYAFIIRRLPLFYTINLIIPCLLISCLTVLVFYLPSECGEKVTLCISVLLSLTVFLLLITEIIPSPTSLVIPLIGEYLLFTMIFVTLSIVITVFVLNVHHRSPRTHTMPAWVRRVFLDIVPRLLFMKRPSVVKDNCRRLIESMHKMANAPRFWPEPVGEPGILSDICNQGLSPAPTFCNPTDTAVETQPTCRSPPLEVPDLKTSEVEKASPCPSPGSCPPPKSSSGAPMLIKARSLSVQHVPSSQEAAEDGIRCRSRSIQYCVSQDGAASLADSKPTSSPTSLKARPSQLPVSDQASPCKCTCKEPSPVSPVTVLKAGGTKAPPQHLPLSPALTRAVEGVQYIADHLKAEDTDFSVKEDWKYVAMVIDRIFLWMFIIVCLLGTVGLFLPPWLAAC
Sequence (P12390 25-500): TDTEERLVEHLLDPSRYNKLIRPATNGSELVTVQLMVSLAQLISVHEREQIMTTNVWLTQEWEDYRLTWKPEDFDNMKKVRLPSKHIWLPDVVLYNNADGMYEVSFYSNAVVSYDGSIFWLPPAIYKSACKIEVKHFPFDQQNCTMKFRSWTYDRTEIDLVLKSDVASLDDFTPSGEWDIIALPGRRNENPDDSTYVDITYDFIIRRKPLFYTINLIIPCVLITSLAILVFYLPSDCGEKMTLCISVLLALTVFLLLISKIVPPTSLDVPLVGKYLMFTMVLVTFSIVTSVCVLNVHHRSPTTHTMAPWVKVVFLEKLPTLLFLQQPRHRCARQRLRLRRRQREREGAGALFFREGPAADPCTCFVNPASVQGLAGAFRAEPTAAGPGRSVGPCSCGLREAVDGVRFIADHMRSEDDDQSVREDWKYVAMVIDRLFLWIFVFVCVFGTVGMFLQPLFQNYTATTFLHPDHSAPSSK

molecule	Ki [nM]
CC(=O)N1CC2CNCC(C2)C1	18.7
C/C=C/CC(=O)N1CC2CNCC(C2)C1	30.1
CCC(=O)N1CC2CNCC(C2)C1	12.1
CC(C)C(=O)N1CC2CNCC2C1 (stereo not drawn)	56
O=C(C1CC1(F)F)N1CC2CNCC2C1 (stereo not drawn)	6.2
CC(C)(C)C(=O)N1CC2CNCC2C1 (stereo not drawn)	15.8

----------
molecular target: human α4β2 nAChR subtype (Homo sapiens, UniProt P17787+P43681); experiment: Radioligand binding, [3H]nicotine, membranes from SH-EP1/human α4β2 clonal cells; conditions: [3H]nicotine 5 nM, SH-EP1/human α4β2 cell membranes
Sequence (P43681 29-627 limits assumed): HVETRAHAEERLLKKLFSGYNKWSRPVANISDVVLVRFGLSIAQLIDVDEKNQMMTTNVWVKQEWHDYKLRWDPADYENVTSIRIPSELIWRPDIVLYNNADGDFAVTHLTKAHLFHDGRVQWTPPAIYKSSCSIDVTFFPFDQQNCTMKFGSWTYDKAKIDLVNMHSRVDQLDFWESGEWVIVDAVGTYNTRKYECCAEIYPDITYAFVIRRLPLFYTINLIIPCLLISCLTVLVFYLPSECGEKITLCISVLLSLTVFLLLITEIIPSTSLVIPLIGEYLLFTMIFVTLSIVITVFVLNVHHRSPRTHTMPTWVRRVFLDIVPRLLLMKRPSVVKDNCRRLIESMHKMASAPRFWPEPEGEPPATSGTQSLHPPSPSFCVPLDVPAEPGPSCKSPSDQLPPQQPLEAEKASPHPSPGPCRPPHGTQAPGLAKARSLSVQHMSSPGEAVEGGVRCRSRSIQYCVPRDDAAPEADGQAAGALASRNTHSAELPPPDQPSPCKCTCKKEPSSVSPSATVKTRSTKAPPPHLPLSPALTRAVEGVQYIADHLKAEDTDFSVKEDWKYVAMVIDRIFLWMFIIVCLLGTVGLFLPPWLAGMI
Sequence (P17787 26-502): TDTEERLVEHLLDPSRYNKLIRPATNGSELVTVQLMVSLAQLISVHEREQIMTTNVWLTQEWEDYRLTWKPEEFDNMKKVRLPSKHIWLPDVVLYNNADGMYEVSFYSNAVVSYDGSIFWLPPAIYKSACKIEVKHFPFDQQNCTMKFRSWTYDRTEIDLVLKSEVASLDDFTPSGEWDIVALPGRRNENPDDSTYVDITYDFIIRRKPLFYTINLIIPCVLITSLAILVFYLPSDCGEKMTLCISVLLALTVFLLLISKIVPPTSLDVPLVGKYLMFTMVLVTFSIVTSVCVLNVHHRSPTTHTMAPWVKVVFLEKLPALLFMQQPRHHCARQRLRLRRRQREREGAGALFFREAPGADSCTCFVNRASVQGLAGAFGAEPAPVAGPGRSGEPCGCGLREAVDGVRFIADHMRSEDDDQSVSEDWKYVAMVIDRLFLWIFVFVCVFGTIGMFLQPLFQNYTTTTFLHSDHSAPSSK
pKi: −log10 of the molar value.
In this section, each of the compounds is paired with its reported pKi.

compound	pKi
O=C(C1CCC1)N1CC2CNCC(C2)C1 [Example 10-75]	8.85
CC1(C(=O)N2CC3CNCC(C3)C2)CC1 [Example 10-70]	6.67
O=C(CS(=O)(=O)c1ccccc1)N1CC2CNCC(C2)C1 [Example 10-84]	6.22
CC1(C)CC(C(=O)N2CC3CNCC3C2)C1 (stereo not shown) [Example 10-50]	6.89
O=C([C@@H]1C[C@@H]1F)N1CC2CNCC2C1 (stereo partly shown) [Example 10-39]	8.42
O=C(C1CC=CCC1)N1CC2CNCC2C1 (stereo not shown) [Example 10-49]	6.88
O=C(C1CC(F)C1)N1CC2CNCC(C2)C1 (stereo not shown) [Example 10-82]	8.54
O=C([C@H]1C[C@@H]1F)N1CC2CNCC(C2)C1 [Example 10-79]	8.70
O=C([C@H]1C[C@@H]1F)N1CC2CNCC2C1 (stereo partly shown) [Example 10-36]	7.76
CC1(C)CC1C(=O)N1CC2CNCC(C2)C1 (stereo not shown) [Example 10-69]	9.00
O=C(N1CC2CNCC2C1)C1(C(F)(F)F)CC1 (stereo not shown) [Example 10-17]	6.52
O=C([C@@H]1C[C@@H]1F)N1CC2CNCC(C2)C1 [Example 10-89]	9.00
O=C(C1CC2CCC1C2)N1CC2CNCC(C2)C1 (stereo not shown) [Example 10-93]	7.45
N#CC1(C(=O)N2CC3CNCC3C2)CC1 (stereo not shown) [Example 10-24]	6.56
O=C1CCCC2=C1CC(C(=O)N1CC3CNCC3C1)CC2 (stereo not shown) [Example 10-47]	6.38
CS(=O)(=O)CC(=O)N1CC2CNCC2C1 (stereo not shown) [Example 10-35]	6.46
COCCC(=O)N1CC2CNCC(C2)C1 [Example 10-62]	6.90
O=C(C1C2CCCCC21)N1CC2CNCC2C1 (stereo not shown) [Example 10-45]	8.07
COCC(=O)N1CC2CNCC2C1 (stereo not shown) [Example 10-4]	6.49
CC(C)(F)C(=O)N1CC2CNCC(C2)C1 [Example 10-91]	6.86
N#CC1(C(=O)N2CC3CNCC(C3)C2)CC1 [Example 10-74]	5.87
CC(=O)N1CC2CNCC(C2)C1 [Example 10-55]	7.69

----------
target: α7 nAChR subtype (Rattus norvegicus); construct: The hippocampus was removed and placed in 10 volumes (weight:volume) of ice-cold preparative buffer; from tissue; host or cells: rat hippocampus membranes (female Sprague-Dawley); experiment: Radioligand binding, [3H]MLA, rat hippocampus membranes; details: [3H]MLA 5 nM, rat hippocampus membranes; read-out: α7 Ki
Sequence (Q05941 23-502): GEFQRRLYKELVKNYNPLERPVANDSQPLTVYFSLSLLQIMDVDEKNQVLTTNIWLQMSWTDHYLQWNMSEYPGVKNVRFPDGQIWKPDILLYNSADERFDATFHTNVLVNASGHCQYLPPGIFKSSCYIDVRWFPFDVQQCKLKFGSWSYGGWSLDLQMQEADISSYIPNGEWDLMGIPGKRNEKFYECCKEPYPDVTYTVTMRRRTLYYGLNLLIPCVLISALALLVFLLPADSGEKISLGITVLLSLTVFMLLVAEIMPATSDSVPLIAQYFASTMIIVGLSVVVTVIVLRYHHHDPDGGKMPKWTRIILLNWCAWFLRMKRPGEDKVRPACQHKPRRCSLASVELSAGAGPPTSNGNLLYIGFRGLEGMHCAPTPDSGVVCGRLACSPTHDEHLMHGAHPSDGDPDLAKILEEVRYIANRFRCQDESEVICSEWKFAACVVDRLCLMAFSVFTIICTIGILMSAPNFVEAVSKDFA
Lab note: compare Ki with 800 nM, writing 1 if less and -1 if equal or more.

compound	answer_label
CC(C)C(=O)N1CC2CNCC(C2)C1	1
C[C@@H]1C(C(=O)N2CC3CNCC3C2)[C@@H]1C (some centres unmarked)	-1
COCC(=O)N1CC2CNCC(C2)C1	-1
O=C(C1CC12CCC2)N1CC2CNCC(C2)C1 (centres unmarked)	1
O=C(C1CCC1)N1CC2CNCC(C2)C1	1
CC1(C)CC1C(=O)N1CC2CNCC(C2)C1 (centres unmarked)	1
CC1CC1C(=O)N1CC2CNCC(C2)C1 (centres unmarked)	1
O=C(C1CC1)N1CC2CNCC(C2)C1	1
O=C(C1CC(F)C1)N1CC2CNCC(C2)C1 (centres unmarked)	-1
O=C(C1CC1(F)F)N1CC2CNCC(C2)C1 (centres unmarked)	1
CC(=O)N1CC2CNCC(C2)C1	-1
COCC(=O)N1CC2CNCC2C1 (centres unmarked)	-1
O=C(C1CC=CC1)N1CC2CNCC(C2)C1	1
O=C(C1C2CCCCC21)N1CC2CNCC2C1 (centres unmarked)	1
CCCC(=O)N1CC2CNCC(C2)C1	1
O=C(C(F)F)N1CC2CNCC(C2)C1	1
O=C(C1CCCC1)N1CC2CNCC(C2)C1	1
O=C(C1CC1)N1CC2CNCC2C1 (centres unmarked)	-1

----------
Some molecules, each annotated with its measured pKi.
target: human α4β2 nAChR subtype (Homo sapiens, UniProt P17787+P43681); test: Radioligand binding, [3H]nicotine, membranes from SH-EP1/human α4β2 clonal cells; conditions: [3H]nicotine 5 nM, SH-EP1/human α4β2 cell membranes
pKi: −log10 of the molar value.
quantity_name: pKi

molecule	experimental_result
CC(C)C(=O)N1CC2CNCC2C1 (stereo not drawn) [Example 10-31]	7.54
O=C(C1CC=CCC1c1cccnc1)N1CC2CNCC(C2)C1 (stereo not drawn) [Example 10-101]	7.16
O=C(C1CC1)N1CC2CNCC(C2)C1 [Example 10-56]	9.40
C=CCC(=O)N1CC2CNCC2C1 (stereo not drawn) [Example 10-5]	6.85
CS(=O)(=O)CC(=O)N1CC2CNCC(C2)C1 [Example 10-85]	6.88
CC1(C(=O)N2CC3CNCC3C2)CC1 (stereo not drawn) [Example 10-20]	7.27

----------
Listed here are compounds together with their documented pKi.
target: rat α4β2 nAChR subtype (Rattus norvegicus, UniProt P09483+P12390); construct: The cerebral cortex was removed and placed in 20 volumes (weight:volume) of ice-cold preparative buffer; test: Radioligand binding, [3H]nicotine, rat cortex membranes; conditions: [3H]nicotine 5 nM
pKi: −log10 of the molar value.

compound	pKi
CC1(C)C(C(=O)N2CC3CNCC3C2)C1(C)C (stereo not shown)	7.31
C[C@@H]1C(C(=O)N2CC3CNCC3C2)[C@@H]1C (stereo partly shown)	7.75
CC(C)(C)C(=O)N1CC2CNCC(C2)C1	6.95
O=C(C1CC2CCC1C2)N1CC2CNCC(C2)C1 (stereo not shown)	7.30
N#CC1(C(=O)N2CC3CNCC(C3)C2)CC1	5.31
CC(C)C(=O)N1CC2CNCC(C2)C1	6.99
CC1(C)CC1C(=O)N1CC2CNCC(C2)C1 (stereo not shown)	8.82
O=C(C1CCCC1)N1CC2CNCC(C2)C1	7.58
O=C(C1CC2CCC1C2)N1CC2CNCC2C1 (stereo not shown)	6.86
O=C(N1CC2CNCC(C2)C1)C1(O)CC1	7.12
O=C(CCF)N1CC2CNCC(C2)C1	7.86
O=C(C1CC1)N1CC2CNCC2C1 (stereo not shown)	7.76
O=C(C1CC12CCC2)N1CC2CNCC2C1 (stereo not shown)	8.20
CC1CC1C(=O)N1CC2CNCC2C1 (stereo not shown)	8.39
COCC(=O)N1CC2CNCC(C2)C1	7.30
O=C([C@H]1C[C@@H]1F)N1CC2CNCC2C1 (stereo partly shown) [Example 10-36]	7.46
O=C(C1CC12CCC2)N1CC2CNCC(C2)C1 (stereo not shown)	8.80
C=CCC(=O)N1CC2CNCC2C1 (stereo not shown)	7.65
CCCC(=O)N1CC2CNCC2C1 (stereo not shown)	6.95
O=C(C1CC2C=CC1C2)N1CC2CNCC2C1 (stereo not shown)	7.47
O=C(C1CC=CCC1c1cccnc1)N1CC2CNCC(C2)C1 (stereo not shown)	6.22
O=C(CC1CC1)N1CC2CNCC(C2)C1	7.88

----------
biological target: human α4β2 nAChR subtype (Homo sapiens, UniProt P17787+P43681); experiment: Radioligand binding, [3H]nicotine, membranes from SH-EP1/human α4β2 clonal cells; details: [3H]nicotine 5 nM, SH-EP1/human α4β2 cell membranes
Readings of Ki for the listed molecules
quantity_name: Ki

molecule	quantity_name	experimental_result
O=C(C1=CCCC1)N1CC2CNCC(C2)C1	Ki	468 nM
CC(C)=CC(=O)N1CC2CNCC2C1 (centres unmarked)	Ki	79.7 nM
O=C([C@H]1C[C@@H]1F)N1CC2CNCC(C2)C1 [Example 10-87]	Ki	5.2 nM
CC(F)(F)C(=O)N1CC2CNCC2C1 (centres unmarked)	Ki	9.8 nM
O=C(C1CC12CCC2)N1CC2CNCC(C2)C1 (centres unmarked)	Ki	1.1 nM
CC(=O)N1CC2CNCC2C1 (centres unmarked)	Ki	38.5 nM
CC(C)=CC(=O)N1CC2CNCC(C2)C1	Ki	13.8 nM
CCCC(=O)N1CC2CNCC2C1 (centres unmarked)	Ki	48.8 nM
O=C(C1CC1(F)F)N1CC2CNCC(C2)C1 (centres unmarked)	Ki	1.1 nM
O=C(C1CC=CCC1)N1CC2CNCC(C2)C1 (centres unmarked)	Ki	134 nM
O=C(Cn1ccnc1)N1CC2CNCC(C2)C1	Ki	821 nM
